Structures can show the parent of a compound that is named as a salt.
Notes on Ki obtained with Factor Xa (Homo sapiens, UniProt P00742).
Sequence (P00742 235-488 limits assumed): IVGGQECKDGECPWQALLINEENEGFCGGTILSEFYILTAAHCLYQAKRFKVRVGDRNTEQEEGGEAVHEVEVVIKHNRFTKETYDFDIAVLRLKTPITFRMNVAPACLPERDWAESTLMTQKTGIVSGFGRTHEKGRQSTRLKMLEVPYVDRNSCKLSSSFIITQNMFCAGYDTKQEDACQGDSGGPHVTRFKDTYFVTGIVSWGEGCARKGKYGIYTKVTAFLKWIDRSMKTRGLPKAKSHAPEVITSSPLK
Sequence (P00742 41-179 partner limits assumed): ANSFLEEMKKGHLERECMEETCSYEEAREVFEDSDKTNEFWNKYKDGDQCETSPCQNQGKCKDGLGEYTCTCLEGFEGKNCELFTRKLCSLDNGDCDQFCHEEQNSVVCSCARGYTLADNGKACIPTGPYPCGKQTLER
PROPERTY NAME: Ki (nM)

Guide cases for Ki, answers given:
Nc1nccc2[nH]c(C3CCN(C(=O)c4ccc(-c5ccc(=O)[nH]c5)cc4)CC3)cc12 [Example 44, trifluoroacetate]: 990
N=C(N)c1cccc(C2=CCN(C(=O)c3ccc(-c4cccnc4)cc3)CC2)c1 [Example 8, ditrifluoroacetate]: 5
N=C(N)c1cccc(C2=CCN(C(=O)c3ccc(-c4ncccn4)cc3)CC2)c1 [Example 16, ditrifluoroacetate]: 63
N=C(N)c1cccc(C2CCN(C(=O)c3ccc(-c4ccccn4)cc3)CC2)c1 [Example 25, ditrifluoroacetate]: 9
Nc1nccc2ccc(C3=CCN(C(=O)c4ccc(-c5ccc(=O)[nH]c5)cc4)CC3)cc12 [Example 39, trifluoroacetate]: 140
N=C(N)c1cccc(C2=CCN(C(=O)c3ccc(-c4ccc(Cl)s4)cc3)CC2)c1 [Example 11, trifluoroacetate]: 688

P: NC(=O)c1cccc(-c2ccc(C(=O)N3CCC(c4ccc5ccnc(N)c5c4)CC3)cc2)c1 [Example 35, trifluoroacetate]
Q: N=C(N)c1cccc(C2=CCN(C(=O)c3ccc(-c4ccc(Br)o4)cc3)CC2)c1 [Example 10, trifluoroacetate]
Enquiry: Hey, between P and Q which has a smaller measured Ki? Label of pick, please.
Return: Q
